All figures here come from patent US20050107386A1.

- System: AMPK(r)
- protocol.details: AMPK(r) kinase assay
- Assay type: biochemical, rat
- test.settings: 3 μM; percent of control kinase activity
measured.endpoint: Inhibitory activity (% of control), AMPK(r)

[[record]]
compound = "CC(C)(C)Cc1nc(-c2ccc3[nH]nc(-c4ccc5cc(OCc6ccccn6)ccc5c4)c3c2)n[nH]1"
experimental_system = "AMPK(r)"
readout_value = "54 % of control"

[[record]]
compound = "O=C(NC1CCCC1)c1cccc(-c2n[nH]c3ccc(-c4nc[nH]n4)cc23)c1 [CC007, reference compound]"
experimental_system = "AMPK(r)"
readout_value = "74 % of control"

[[record]]
compound = "COc1ccc2cc(-c3n[nH]c4ccc(-c5n[nH]c(CN6CCOCC6)n5)cc34)ccc2c1"
experimental_system = "AMPK(r)"
readout_value = "52 % of control"

[[record]]
compound = "CC(C)Cc1nc(-c2ccc3[nH]nc(-c4ccc5cc(OCCN6CCCC6)ccc5c4)c3c2)n[nH]1"
experimental_system = "AMPK(r)"
readout_value = "4 % of control"

[[record]]
compound = "CCN1CCC[C@H]1COc1ccc2cc(-c3n[nH]c4ccc(-c5nc(CC(C)(C)C)n[nH]5)cc34)ccc2c1"
experimental_system = "AMPK(r)"
readout_value = "2 % of control"


Given Fc1ccc(-c2n[nH]c3ccc(-c4n[nH]c(C5CCCC5)n4)cc23)cc1 [CC006, reference compound] , state its recorded Inhibitory activity (% of control), AMPK(r). 74 % of control

###

Reported Inhibitory activity (% of control), FGFR3(h) values for the following compounds.
- experimental.system: FGFR3(h) (Homo sapiens, UniProt P22607)
- Sequence (P22607 23-806): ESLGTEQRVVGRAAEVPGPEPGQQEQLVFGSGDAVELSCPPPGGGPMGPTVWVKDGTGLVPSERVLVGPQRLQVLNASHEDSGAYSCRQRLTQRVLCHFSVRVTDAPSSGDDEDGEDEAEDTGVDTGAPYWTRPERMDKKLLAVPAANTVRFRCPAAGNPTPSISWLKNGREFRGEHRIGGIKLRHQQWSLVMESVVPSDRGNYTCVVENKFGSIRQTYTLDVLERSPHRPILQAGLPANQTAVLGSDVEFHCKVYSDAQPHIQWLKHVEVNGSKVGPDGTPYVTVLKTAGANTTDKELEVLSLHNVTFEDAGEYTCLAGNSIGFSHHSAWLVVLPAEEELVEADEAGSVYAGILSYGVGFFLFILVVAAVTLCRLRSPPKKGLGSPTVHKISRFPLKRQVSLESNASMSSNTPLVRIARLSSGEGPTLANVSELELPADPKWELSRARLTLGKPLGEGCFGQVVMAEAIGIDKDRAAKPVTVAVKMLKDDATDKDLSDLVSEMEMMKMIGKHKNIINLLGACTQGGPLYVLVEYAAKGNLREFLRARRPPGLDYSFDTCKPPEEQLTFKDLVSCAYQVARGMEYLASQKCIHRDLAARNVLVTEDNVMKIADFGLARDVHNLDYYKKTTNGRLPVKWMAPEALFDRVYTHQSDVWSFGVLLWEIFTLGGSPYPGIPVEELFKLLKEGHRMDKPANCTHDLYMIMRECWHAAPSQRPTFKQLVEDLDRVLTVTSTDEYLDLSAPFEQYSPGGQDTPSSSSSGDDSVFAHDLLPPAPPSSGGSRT
- protocol.details: FGFR3(h) kinase assay
- Format: biochemical
- test.settings: 3 μM; percent of control kinase activity

Sample records with Inhibitory activity (% of control), FGFR3(h):
[[record]]
compound = "Fc1ccc(-c2n[nH]c3ccc(-c4n[nH]c(C5CCCC5)n4)cc23)cc1 [CC006, reference compound]"
experimental_system = "FGFR3(h) (Homo sapiens, UniProt P22607)"
readout_value = "33 % of control"

[[record]]
compound = "COc1ccc2cc(-c3n[nH]c4ccc(-c5n[nH]c(CN6CCOCC6)n5)cc34)ccc2c1"
experimental_system = "FGFR3(h) (Homo sapiens, UniProt P22607)"
readout_value = "33 % of control"


Given CC(C)Cc1nc(-c2ccc3[nH]nc(-c4ccc5cc(OCCN6CCCC6)ccc5c4)c3c2)n[nH]1 , state its recorded Inhibitory activity (% of control), FGFR3(h). 5 % of control

Given CC(C)(C)Cc1nc(-c2ccc3[nH]nc(-c4ccc5cc(OCc6ccccn6)ccc5c4)c3c2)n[nH]1 , state its recorded Inhibitory activity (% of control), FGFR3(h). 77 % of control

Given CCN1CCC[C@H]1COc1ccc2cc(-c3n[nH]c4ccc(-c5nc(CC(C)(C)C)n[nH]5)cc34)ccc2c1 , state its recorded Inhibitory activity (% of control), FGFR3(h). 5 % of control

Given O=C(NC1CCCC1)c1cccc(-c2n[nH]c3ccc(-c4nc[nH]n4)cc23)c1 [CC007, reference compound] , state its recorded Inhibitory activity (% of control), FGFR3(h). 54 % of control

###

- experimental.system: CK2(h) (Homo sapiens, UniProt P68400)
- Sequence (P68400 whole entry): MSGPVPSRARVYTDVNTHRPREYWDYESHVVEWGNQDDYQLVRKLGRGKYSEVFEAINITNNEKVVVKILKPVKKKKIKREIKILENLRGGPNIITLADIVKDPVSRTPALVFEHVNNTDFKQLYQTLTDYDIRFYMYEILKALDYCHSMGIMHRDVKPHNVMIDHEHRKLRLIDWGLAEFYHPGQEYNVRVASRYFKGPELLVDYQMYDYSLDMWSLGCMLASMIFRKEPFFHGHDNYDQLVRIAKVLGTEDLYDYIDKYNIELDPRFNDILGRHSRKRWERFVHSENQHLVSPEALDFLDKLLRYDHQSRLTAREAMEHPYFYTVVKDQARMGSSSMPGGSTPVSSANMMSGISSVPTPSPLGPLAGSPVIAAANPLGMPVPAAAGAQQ
- Sequence (P67870 whole entry partner): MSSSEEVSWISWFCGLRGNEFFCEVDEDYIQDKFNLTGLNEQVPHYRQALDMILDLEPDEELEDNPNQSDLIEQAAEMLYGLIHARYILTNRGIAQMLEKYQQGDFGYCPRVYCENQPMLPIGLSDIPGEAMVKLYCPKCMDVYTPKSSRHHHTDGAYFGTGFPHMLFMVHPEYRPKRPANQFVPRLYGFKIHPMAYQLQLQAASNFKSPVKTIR
- protocol.details: CK2(h) kinase assay
- Format: biochemical
- test.settings: 3 μM; percent of control kinase activity
measured.endpoint: Inhibitory activity (% of control), CK2(h)

Given CC(C)Cc1nc(-c2ccc3[nH]nc(-c4ccc5cc(OCCN6CCCC6)ccc5c4)c3c2)n[nH]1 [CC002] , state its recorded Inhibitory activity (% of control), CK2(h). 41 % of control

Given CCN1CCC[C@H]1COc1ccc2cc(-c3n[nH]c4ccc(-c5nc(CC(C)(C)C)n[nH]5)cc34)ccc2c1 [CC005] , state its recorded Inhibitory activity (% of control), CK2(h). 74 % of control

Given COc1ccc2cc(-c3n[nH]c4ccc(-c5n[nH]c(CN6CCOCC6)n5)cc34)ccc2c1 [CC001] , state its recorded Inhibitory activity (% of control), CK2(h). 45 % of control
